B1: FBXO34 (parent)
chain: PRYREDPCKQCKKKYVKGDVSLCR

Variants of: B1
Test: protein stability index of a GFP-peptide fusion (GPS, HEK-293T) (PSI 1-6); higher = more stable;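 further: lentivirally expressed fusions sorted by FACS into six bins by GFP to DsRed ratio, PSI derived from sequencing read proportions per bin multiplied by bin number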
Details: c terminus: a fixed tail appended
# protein stability index >= 3 gives 1.0, anything below gives 0.0

INSERT INTO results (alteration, label) VALUES
  ('D6Y', 0.0),
  ('Q10Y', 0.0),
  ('D19P', 0.0),
  ('K17C', 0.0),
  ('K14C', 0.0),
  ('V20Q', 1.0),
  ('C11N', 1.0),
  ('C11E', 1.0),
  ('R24E', 1.0),
  ('C8E', 1.0),
  ('K12V', 0.0),
  ('V20L', 0.0),
  ('K9Y', 0.0),
  ('R4M', 0.0),
  ('R2W', 1.0),
  ('K13E', 0.0),
  ('Y3I', 0.0),
  ('R24K', 1.0),
  ('Y3Q', 0.0),
  ('K14F', 0.0),
  ('C23V', 1.0),
  ('L22K', 1.0),
  ('K9W', 0.0),
  ('V16P', 1.0),
  ('C8N', 1.0),
  ('K12P', 1.0),
  ('S21Y', 0.0);

Reference source for all entries: the supplement of paper PMC10567573
